Tested on: Fibroblast
test.name: Multiplex assay against human fibroblast
Type: toxicity, cell-based
condition.details: 24 h, 10 µM, compound concentration 10 uM, replicate 2
Would you please tag the item rule met when its Population Mitotic Cells (%) is 50% or above, and rule not met when it is below?

Asked: Given COC(=O)C1=C(C)NC(C)=C(C(=O)OCCCN2CCC(c3ccccc3)(c3ccccc3)CC2)[C@H]1c1cccc([N+](=O)[O-])c1 , state whether its Population Mitotic Cells (%) is at least 50%.
Given back: rule not met

Asked: Given Cl.O=C(O)c1cc(-c2ccc(C3CCNCC3)cc2)c2ccc(-c3ccc(C(F)(F)F)cc3)cc2c1 , state whether its Population Mitotic Cells (%) is at least 50%.
Given back: rule not met

Asked: Can Cc1cccc(CN2CCN(C(c3ccccc3)c3ccc(Cl)cc3)CC2)c1.Cl.Cl (stereo not drawn) be said to have Population Mitotic Cells (%) at or above 50%?
Given back: rule met

Asked: Identify whether the reported Population Mitotic Cells (%) of the following molecule is 50% or greater: Cc1ccc2c(c1)c1c(n2CCc2ccc(C)nc2)CCN(C)C1 [LATREPIRDINE]
Given back: rule not met

Asked: Does the reported Population Mitotic Cells (%) for CC(C)Oc1ccccc1C(=O)Nc1ccccc1C(=O)Nc1cccc(S(=O)(=O)C(F)(F)F)c1 fall at or above the 50% mark?
Given back: rule not met

Asked: Please indicate if the recorded Population Mitotic Cells (%) for C[C@]12CC[C@@H]3c4ccc(O)cc4CC[C@H]3[C@@H]1CC[C@@H]2O meets or exceeds 50%.
Given back: rule met

Asked: State whether the measured Population Mitotic Cells (%) reaches 50%, counting equality as reaching it, for Cc1nc(N2CC[C@H](O)C2)ncc1-c1cc(C(F)(F)F)cc2[nH]ncc12
Given back: rule not met

Asked: Check this molecule for Population Mitotic Cells (%) at or above 50%: CNC(=O)Nc1ccc2c(c1)[C@@]1(CC2)OC(=O)N(CC(=O)N(Cc2ccc(F)cc2)[C@@H](C)C(F)(F)F)C1=O
Given back: rule not met

Asked: Is Population Mitotic Cells (%) for CC(C)NC(=O)N1CC[C@H](NC2=Nc3cc(F)ccc3N(CC(F)F)c3ccc(Cl)cc32)C1 at or above 50%?
Given back: rule not met

Asked: Could you please find out whether CNC(=O)Nc1ccc(-c2nc(N3CC4CCC(C3)O4)c3cnn(C4CCC5(CC4)OCCO5)c3n2)cc1 has Population Mitotic Cells (%) that meets 50% or exceeds it?
Given back: rule met

Asked: Form field: Population Mitotic Cells (%) at least 50%? Entry: C=CC(=O)Nc1cccc(Oc2nc(Nc3ccc(N4CCN(C)CC4)cc3OC)ncc2Cl)c1
Given back: rule met

====

Test system: HEK-293T
test.name: Multiplex assay against HEK293T;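 note: share of the cells with healthy nuclei that show this phenotype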
Format: toxicity, cell-based
condition.details: human, 12 h, 1 µM, compound concentration 1 uM, replicate 1
Could you label it Y if measured Population Tubulin-Different-Phenotype (%) is 50% or higher, and N otherwise?

Asked: State whether the measured Population Tubulin-Different-Phenotype (%) reaches 50%, counting equality as reaching it, for CC(C)(C)NC[C@H](O)COc1nsnc1N1CCOCC1 [TIMOLOL]
Given back: N

Asked: Could you verify whether the entry CNC(=O)Nc1ccc2c(c1)[C@@]1(CC2)OC(=O)N(CC(=O)N(Cc2ccc(F)cc2)[C@@H](C)C(F)(F)F)C1=O [A-486] shows Population Tubulin-Different-Phenotype (%) of no less than 50%?
Given back: N

Asked: Assess whether reported Population Tubulin-Different-Phenotype (%) for COC(=O)C1=C(C)NC(C)=C(C(=O)OCCCN2CCC(c3ccccc3)(c3ccccc3)CC2)[C@H]1c1cccc([N+](=O)[O-])c1 [NIGULDIPINE] sits at 50% or higher.
Given back: Y

Asked: Exam item: decide whether the reported Population Tubulin-Different-Phenotype (%) for O=c1cc(N2CCOCC2)oc2c(-c3cccc4c3sc3ccccc34)cccc12 is at least 50%.
Given back: Y

Asked: Could you tell me if the measured Population Tubulin-Different-Phenotype (%) of Cc1nc(N2CC[C@H](O)C2)ncc1-c1cc(C(F)(F)F)cc2[nH]ncc12 reaches 50% or more?
Given back: N

Asked: Kindly determine if Population Tubulin-Different-Phenotype (%) recorded for CC1=C(C(=O)Nc2cc3cn[nH]c3cc2F)C(c2ccc(C(F)(F)F)cc2)CC(=O)N1 (stereo unspecified) is above or exactly 50%.
Given back: N
